# testSystem: steroid sulfatase (Homo sapiens)
# Construct: JEG-3 which constitutively expresses high amount of aromatase and steroid sulfatase; endogenous in cells
# Sequence (P08842 22-583): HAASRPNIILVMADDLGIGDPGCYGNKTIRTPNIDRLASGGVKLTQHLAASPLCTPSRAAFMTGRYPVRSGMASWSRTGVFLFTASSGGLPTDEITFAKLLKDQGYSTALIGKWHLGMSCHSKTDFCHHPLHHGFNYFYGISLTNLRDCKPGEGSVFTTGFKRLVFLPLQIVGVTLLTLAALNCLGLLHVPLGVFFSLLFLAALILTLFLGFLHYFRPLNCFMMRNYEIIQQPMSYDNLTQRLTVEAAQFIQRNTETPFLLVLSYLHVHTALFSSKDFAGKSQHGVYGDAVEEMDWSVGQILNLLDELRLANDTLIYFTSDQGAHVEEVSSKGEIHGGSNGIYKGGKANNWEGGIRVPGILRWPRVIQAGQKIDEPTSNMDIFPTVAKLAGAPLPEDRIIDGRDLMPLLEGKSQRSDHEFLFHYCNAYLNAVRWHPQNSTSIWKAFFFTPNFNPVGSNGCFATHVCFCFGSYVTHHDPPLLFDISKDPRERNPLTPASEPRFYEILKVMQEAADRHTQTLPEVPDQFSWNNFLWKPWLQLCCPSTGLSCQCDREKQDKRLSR
# assayNotes: Steroid sulfatase (STS) inhibition assay in JEG-3 cells ([6,7-3H] estrone sulfate)
# condition: 1 hour at 37° C., duplicate
observable: IC50 (nM)

# annotated cases, reported IC50 shown
N#Cc1cnc(Nn2cnc3ccccc32)cc1-c1ccc(OS(N)(=O)=O)cc1 ... 11.8
N#Cc1ccc(Cn2cnc3ccccc32)nc1-c1ccc(OS(N)(=O)=O)cc1 ... 9.1

[a] N#Cc1ncc(Cn2cnc3ccccc32)cc1-c1ccc(OS(N)(=O)=O)cc1
[b] N#Cc1ccc(Cn2nnc3cccnc32)cc1-c1ccc(OS(N)(=O)=O)cc1
[c] CSc1cc(-c2cc(Nn3cnc4ccccc43)ccc2C#N)ccc1OS(N)(=O)=O
[d] N#Cc1ccc(Nn2cnc3ccccc32)cc1-c1ccc(OS(N)(=O)=O)cc1
Ascending by IC50, please. # output: labels, in the requested order
d, a, b, c

----------
# testSystem: aromatase (Homo sapiens, UniProt P11511)
# Construct: JEG-3 which constitutively expresses high amount of aromatase and steroid sulfatase; endogenous in cells
# Sequence (P11511 whole entry): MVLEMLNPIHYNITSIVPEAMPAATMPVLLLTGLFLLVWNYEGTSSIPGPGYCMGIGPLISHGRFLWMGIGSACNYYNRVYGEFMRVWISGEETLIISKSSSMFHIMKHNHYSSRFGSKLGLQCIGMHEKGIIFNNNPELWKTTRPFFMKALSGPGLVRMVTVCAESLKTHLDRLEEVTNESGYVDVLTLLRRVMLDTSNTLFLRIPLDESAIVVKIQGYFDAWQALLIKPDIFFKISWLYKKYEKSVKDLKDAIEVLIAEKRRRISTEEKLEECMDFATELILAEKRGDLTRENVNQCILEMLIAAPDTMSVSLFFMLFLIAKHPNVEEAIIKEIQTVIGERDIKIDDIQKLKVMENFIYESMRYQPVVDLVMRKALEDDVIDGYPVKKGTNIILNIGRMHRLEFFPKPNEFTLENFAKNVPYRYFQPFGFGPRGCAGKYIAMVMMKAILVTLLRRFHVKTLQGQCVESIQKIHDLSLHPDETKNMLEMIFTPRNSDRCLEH
# assayNotes: Aromatase inhibition assay in JEG-3 cells ([1β-3H] androstenedione, tritiated water release)
# condition: 1.25 hour incubation, duplicate
pIC50: −log10 of the molar value.
observable: pIC50

CN(c1cc(-c2ccc(OS(N)(=O)=O)cc2)c(C#N)cn1)n1cnc2ccccc21 ... 8.60
CN(c1cnc(C#N)c(-c2ccc(OS(N)(=O)=O)cc2)c1)n1cnc2cccnc21 ... 8.68

----------
# testSystem: aromatase (Homo sapiens, UniProt P11511)
# Construct: JEG-3 which constitutively expresses high amount of aromatase and steroid sulfatase; endogenous in cells
# assayNotes: Aromatase inhibition assay in JEG-3 cells ([1β-3H] androstenedione, tritiated water release)
# condition: 1.25 hour incubation, duplicate
Recorded IC50 values for a group of molecules are listed next.

Report IC50, nothing else, for this molecule: N#Cc1ncc(Nn2cnc3cccnc32)nc1-c1ccc(OS(N)(=O)=O)cc1
> 60 nM

Look up IC50 of N#Cc1ccc(Cn2c(C(F)(F)F)nc3ccccc32)cc1-c1ccc(OS(N)(=O)=O)cc1 and report it.
> 60 nM

Quickly give me recorded IC50 for Cc1nc2ccccc2n1Cc1ccc(C#N)c(-c2ccc(OS(N)(=O)=O)cc2)c1
> 60 nM
